# MEASUREMENT TARGET: RORγt (Homo sapiens, UniProt P51449)
# Sequence (P51449 269-508 limits assumed): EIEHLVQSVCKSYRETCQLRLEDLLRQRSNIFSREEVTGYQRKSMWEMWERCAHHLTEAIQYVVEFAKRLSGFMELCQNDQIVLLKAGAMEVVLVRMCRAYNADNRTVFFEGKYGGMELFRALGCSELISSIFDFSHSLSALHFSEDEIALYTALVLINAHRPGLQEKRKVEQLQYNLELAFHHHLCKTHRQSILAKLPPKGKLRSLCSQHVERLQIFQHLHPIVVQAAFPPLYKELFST
pIC50: −log10 of the molar value.
Entries annotated with measured pIC50
PARAMETER: pIC50

{"columns": ["COMPOUND", "MEASUREMENT TARGET", "PARAMETER", "OBSERVED MEASUREMENT"],
 "data": [
  ["CNS(=O)(=O)c1ccc(CC(=O)Nc2ccc(C(=O)C(C)(C)c3ccc(F)c(Cl)c3)nc2)cc1 [Compound I-47]", "RORγt (Homo sapiens, UniProt P51449)", "pIC50", "8.00 to 9.00"],
  ["CCS(=O)(=O)c1ccc(CC(=O)Nc2ccc(C(=O)C(C)c3ccc(Cl)cc3)nc2)cc1 (stereo not shown) [Compound I-14]", "RORγt (Homo sapiens, UniProt P51449)", "pIC50", "8.00 to 9.00"],
  ["CN(C)S(=O)(=O)c1ccc(CC(=O)Nc2ccc(C(=O)C(C)(C)c3ccccn3)nc2)cc1 [Compound I-64]", "RORγt (Homo sapiens, UniProt P51449)", "pIC50", "< 6.00"],
  ["CCS(=O)(=O)c1ccc(CC(=O)Nc2ccc(C(=O)C(C)(C)c3ccc(Br)cc3)nc2)cc1 [Compound I-5]", "RORγt (Homo sapiens, UniProt P51449)", "pIC50", "8.00 to 9.00"]
]}
